For each record, write down the corresponding IC50.
- System: LTB4 production in human whole blood
- method.summary: LTB4 production inhibition assay in human whole blood (calcimycin-stimulated)
- Assay type: cell-based
- measurement.setup: heparinized human whole blood, 15 min 37° C., calcimycin 20 μM 30 min, plasma LTB4 by HTRF
Give bare numbers, in µM.

Example cases with answers are listed next.
# molecule, unit.string, IC50
records = [
    ("O=C1CC[C@@H](COc2ccc(Oc3ccc(-c4ccn[nH]4)cc3)cc2)O1", "µM", 4.5),
    ("c1cncc(CCOc2ccc(Oc3ccc(-c4ccn[nH]4)cc3)cc2)c1", "µM", 2.28),
    ("c1cc(-c2ccc(Oc3ccc(OCc4cnco4)cc3)cc2)[nH]n1", "µM", 1.65),
]

API: the following record is the query input.
Recall and state the measured IC50 for c1cc(-c2ccc(Oc3ccc(OCCC4CCCCO4)cc3)cc2)[nH]n1 (centres unmarked) . 4.6

----------
Record set of IC50 for target or system human LTA4 hydrolase (Homo sapiens).
Numbers only, in nM.

// each compound listed below needs its IC50
1. c1cc(-c2ccc(Oc3ccc(OCCN4CCOCC4)cc3)cc2)[nH]n1
2. Cn1ccnc1COc1ccc(Oc2ccc(-c3ccn[nH]3)cc2)cc1
3. c1cncc(COc2ccc(Oc3ccc(-c4ccn[nH]4)cc3)cc2)c1
4. Cn1ncnc1COc1ccc(Oc2ccc(-c3ccn[nH]3)cc2)cc1
5. O=C1CCC(Oc2ccc(Oc3ccc(-c4ccn[nH]4)cc3)cc2)CN1 (stereo not drawn)
6. O=C1CCCN1CCOc1ccc(Oc2ccc(-c3ccn[nH]3)cc2)cc1

1. 0.2
2. 1.2
3. 1.5
4. 0.6
5. 0.5
6. 0.7

----------
For each record, write down the corresponding pIC50.
- Tested on: LTB4 production in human whole blood
- method.summary: LTB4 production inhibition assay in human whole blood (calcimycin-stimulated)
- Format: cell-based
- measurement.setup: heparinized human whole blood, 15 min 37° C., calcimycin 20 μM 30 min, plasma LTB4 by HTRF
One number for each entry, as −log10 of the molar value.

Example cases with answers are listed next.
# compound, target.system, pIC50
measured = [
    ("O=C1CCC(Oc2ccc(Oc3ccc(-c4ccn[nH]4)cc3)cc2)CN1 (stereo not shown) [Example 8]", "LTB4 production in human whole blood", 6.65),
    ("CN1CC(COc2ccc(Oc3ccc(-c4ccn[nH]4)cc3)cc2)CC1=O (stereo not shown) [Example 7]", "LTB4 production in human whole blood", 6.55),
    ("O=C1CC[C@H](COc2ccc(Oc3ccc(-c4ccn[nH]4)cc3)cc2)N1 [Example 1]", "LTB4 production in human whole blood", 6.61),
    ("O=C1CC[C@@H](Oc2ccc(Oc3ccc(-c4ccn[nH]4)cc3)cn2)CN1 [Example 19]", "LTB4 production in human whole blood", 6.26),
    ("c1cc(-c2ccc(Oc3ccc(OCC4CCCO4)cc3)cc2)[nH]n1 (stereo not shown) [Example 5]", "LTB4 production in human whole blood", 5.87),
    ("O=C1CCCN1CCOc1ccc(Oc2ccc(-c3ccn[nH]3)cc2)cc1 [Example 21]", "LTB4 production in human whole blood", 6.09),
]

// each compound listed below needs its pIC50
1. c1cnc(COc2ccc(Oc3ccc(-c4ccn[nH]4)cc3)cc2)cn1 [Example 44]
2. c1cc(-c2ccc(Oc3ccc(OCc4nccs4)cc3)cc2)[nH]n1 [Example 73]
3. c1cc(-c2ccc(Oc3ccc(OCc4ccc5nccn5c4)cc3)cc2)[nH]n1 [Example 76]
4. c1cc(-c2ccc(Oc3ccc(OCCC4CCOCC4)cc3)cc2)[nH]n1 [Example 82]

1: 6.12; 2: 5.39; 3: 5.85; 4: 5.57

// each compound listed below needs its pIC50
1. c1cc(-c2ccc(Oc3ccc(OCc4ccno4)cc3)cc2)[nH]n1 [Example 52]
2. Cc1nccn1CCOc1ccc(Oc2ccc(-c3ccn[nH]3)cc2)cc1 [Example 42]
3. CC(COc1ccc(Oc2ccc(-c3ccn[nH]3)cc2)cc1)Cn1cccn1 (stereo not shown) [Example 79]
4. O=C1CC[C@@H](Oc2ccc(Oc3ccc(-c4cc[nH]n4)cc3)cc2)CN1 [Example 14]
5. O=C1CCCN1CCCOc1ccc(Oc2ccc(-c3ccn[nH]3)cc2)cc1 [Example 23]

5.59
6.76
5.68
6.75
6.28
